Tested on: FXR:RXRa (NR concentration 270 nM, RXRa partner concentration 90 nM)
measurement.protocol: PBM binding z-score (relative to random genomic background probes); higher = stronger binding; sequences stand for … in GC…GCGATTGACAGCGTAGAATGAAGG
observed.property: PBM binding z-score
Answer with a bare number; do not write a unit.

1) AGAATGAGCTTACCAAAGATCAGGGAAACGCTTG: -0.649
2) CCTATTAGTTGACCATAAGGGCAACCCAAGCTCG: 1.15
3) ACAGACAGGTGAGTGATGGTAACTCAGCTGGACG: 0.332

Record request: PBM binding z-score value, item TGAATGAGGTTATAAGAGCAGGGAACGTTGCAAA 1.63

// query PBM binding z-score value for entry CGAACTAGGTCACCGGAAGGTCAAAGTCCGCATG 6.15

I'd like to know its PBM binding z-score. The sequence in question is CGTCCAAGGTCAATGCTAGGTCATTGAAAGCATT 7.16

Query (sequence): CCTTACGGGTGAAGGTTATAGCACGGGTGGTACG ; field requested: PBM binding z-score 0.149

// query PBM binding z-score value for entry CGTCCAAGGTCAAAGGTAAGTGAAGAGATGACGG 7.07

What value of PBM binding z-score has been recorded for this entry: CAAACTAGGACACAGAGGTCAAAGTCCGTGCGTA 5.53

PBM binding z-score lookup needed for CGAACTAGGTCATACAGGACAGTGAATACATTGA , thanks. 3.71

// returns reported PBM binding z-score for input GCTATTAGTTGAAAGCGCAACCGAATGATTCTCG -0.0843

Could you share which PBM binding z-score value was measured for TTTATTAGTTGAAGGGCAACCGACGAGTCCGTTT ? 0.831

I am curious: what PBM binding z-score value has been reported for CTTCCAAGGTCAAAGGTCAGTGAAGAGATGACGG ? 8.35

Param item = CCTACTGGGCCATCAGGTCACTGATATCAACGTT ; retrieve measured PBM binding z-score. 1.21

Field request: PBM binding z-score | item: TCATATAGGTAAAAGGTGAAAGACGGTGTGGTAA 2.04

Bench note: what PBM binding z-score did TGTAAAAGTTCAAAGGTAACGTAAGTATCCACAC show? 6.54

Give its PBM binding z-score value. Item: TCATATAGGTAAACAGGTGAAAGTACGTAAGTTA 1.36

What does the record list as PBM binding z-score for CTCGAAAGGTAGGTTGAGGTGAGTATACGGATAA ? 0.719

Which PBM binding z-score value belongs to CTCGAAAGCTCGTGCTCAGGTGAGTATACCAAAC ? -0.575
